Tested on: Plasmodium berghei
Assay Notes: Screen against P. berghei liver stage (PbLuc), transformed with Luciferase, at 10uM
Type: functional, HepG2
Test Context: tested at 10 uM
In all, about 69,000 compounds went through this assay and about 8,600 (12%) showed an effect of 50% or more. Many of the other results were omitted from the sample, so strong results are more common in it than they were.
Decide using INHIBITION: a value greater than or equal to 30% is Satisfied, a smaller one is Not satisfied.

As a guide, the following entries are already answered.
COc1ccc(OC)c(CNC2CCCc3nc(N(C)C)ncc32)c1 (configuration not stated) : Satisfied
COc1cccc(-c2n[nH]cc2CNC2CCC(O)CC2)c1 (configuration not stated) : Not satisfied

input: In plain terms: is recorded INHIBITION at least 30% for COc1cccc(OC2CN(C(=O)C3CCCN(C(=O)N(C)C)C3)C2)c1 (configuration not stated) ?
output: Satisfied

input: In plain terms: is recorded INHIBITION at least 30% for "N#Cc1ccc(OC2CCN(C(=O)c3ccc4c(c3)OCO4)CC2)nc1" ?
output: Satisfied

input: In plain terms: is recorded INHIBITION at least 30% for CCN1CCC(CNCc2cc(OC)ccc2OC)C1 (configuration not stated) ?
output: Not satisfied

input: In plain terms: is recorded INHIBITION at least 30% for "COc1ccc(-c2ccoc2)cc1CNC1CCCC1" ?
output: Satisfied

input: In plain terms: is recorded INHIBITION at least 30% for "N#Cc1ccc(OC2CCN(C(=O)Cc3cccs3)CC2)nc1" ?
output: Satisfied

input: In plain terms: is recorded INHIBITION at least 30% for "COc1ccc(-c2ccncc2)cc1CNC1CCCC1" ?
output: Satisfied

input: In plain terms: is recorded INHIBITION at least 30% for "COc1ccc(CNC2CCN(CCc3ccncc3)CC2)cc1O" ?
output: Not satisfied

input: In plain terms: is recorded INHIBITION at least 30% for "N#Cc1ccc(C(=O)N2CCC(Oc3ccc(C#N)cn3)CC2)cc1" ?
output: Satisfied
